Biological target: PSMA-expressing C4-2 cells (Homo sapiens, UniProt Q04609)
Construct: PSMA-expressing C4-2 cells (ATCC, Cat. No. CRL-3314) were cultured in RPMI-1640; host or cells: C4-2 cells
Sequence (Q04609 whole entry): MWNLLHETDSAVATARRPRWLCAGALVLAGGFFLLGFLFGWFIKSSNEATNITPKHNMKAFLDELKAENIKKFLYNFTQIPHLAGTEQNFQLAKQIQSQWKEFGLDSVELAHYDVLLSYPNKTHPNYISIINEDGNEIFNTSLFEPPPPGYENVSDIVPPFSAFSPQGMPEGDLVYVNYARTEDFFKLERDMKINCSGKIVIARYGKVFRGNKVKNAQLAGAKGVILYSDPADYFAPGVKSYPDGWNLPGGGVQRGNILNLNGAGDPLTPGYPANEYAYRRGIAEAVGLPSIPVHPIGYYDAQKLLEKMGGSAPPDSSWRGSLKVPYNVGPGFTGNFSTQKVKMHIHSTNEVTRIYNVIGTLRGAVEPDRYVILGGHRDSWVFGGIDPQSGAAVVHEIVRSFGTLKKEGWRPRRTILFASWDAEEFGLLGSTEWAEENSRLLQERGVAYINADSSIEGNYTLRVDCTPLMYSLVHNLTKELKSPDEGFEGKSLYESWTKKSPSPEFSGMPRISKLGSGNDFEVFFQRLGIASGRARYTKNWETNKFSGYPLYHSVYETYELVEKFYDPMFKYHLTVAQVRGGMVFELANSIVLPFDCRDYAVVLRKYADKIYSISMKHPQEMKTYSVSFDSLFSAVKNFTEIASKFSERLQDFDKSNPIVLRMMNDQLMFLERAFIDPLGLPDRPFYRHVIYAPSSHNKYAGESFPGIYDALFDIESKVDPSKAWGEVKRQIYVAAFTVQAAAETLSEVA
Test: FACS binding assay (competition with 50 nM PSM-0183)
Conditions: FACS binding, C4-2 cells, competition with 50 nM PSM-0183; category; read-out: pIC50 [C4-2] CAT (converted)
Bridge positions count the residues as written; N and C are the ends. Square brackets hold non-standard residues; d marks the D form. Peptide text beside a SMILES is read from it. * marks the point of attachment. Tyr(3-I) = N[C@@H](Cc1ccc(O)c(I)c1)C(=O)O; Phe(4-Cl) = N[C@@H](Cc1ccc(Cl)cc1)C(=O)O; Arg(Me) = CNC(=N)NCCC[C@H](N)C(=O)O; Cit = NC(=O)NCCC[C@H](N)C(=O)O; Lys(Me) = CNCCCC[C@H](N)C(=O)O; Tle = CC(C)(C)[C@H](N)C(=O)O; αMeP = C[C@@]1(C(=O)O)CCCN1; Aib = CC(C)(N)C(=O)O; X8 = O=C(CC1CCNCC1)*
Attribute Measured: IC50

molecule="CC(=O)N[C@H](C(=O)NC(C)(C)C(=O)N[C@@H](Cc1ccccc1)C(=O)N[C@H]1CSSC[C@@H](C(=O)N[C@H](C(=O)N[C@H](C(N)=O)[C@@H](C)O)C(C)(C)C)NC(=O)[C@H](CC(N)=O)NC(=O)[C@]2(C)CCCN2C(=O)[C@H](CCCNC(=N)N)NC(=O)[C@H](CCCCN)NC1=O)[C@@H](C)O [PSM-0233] (Ac-T[Aib]FCKR[αMeP]NC[Tle]T-NH2; disulfide 4-9)" system_name="PSMA-expressing C4-2 cells (Homo sapiens, UniProt Q04609)" observed_measurement="< 200 nM"
molecule="CNCCCC[C@@H]1NC(=O)[C@@H](NC(=O)[C@H](Cc2ccc(O)c(I)c2)NC(=O)C(C)(C)NC(=O)[C@@H](NC(=O)CC2CCNCC2)[C@@H](C)O)CSSC[C@@H](C(=O)N[C@H](C(=O)N[C@H](C(N)=O)[C@@H](C)O)C(C)(C)C)NC(=O)[C@H](CC(N)=O)NC(=O)C(C)(C)NC(=O)[C@H](CCCNC(=N)NC)NC1=O [PSM-0192] (X8-T[Aib][Tyr(3-I)]C[Lys(Me)][Arg(Me)][Aib]NC[Tle]T-NH2; disulfide 4-9)" system_name="PSMA-expressing C4-2 cells (Homo sapiens, UniProt Q04609)" observed_measurement="> 3160 nM"
molecule="CC(=O)N[C@H](C(=O)NC(C)(C)C(=O)N[C@@H](Cc1ccc(Cl)cc1)C(=O)N[C@H]1CSSC[C@@H](C(=O)N[C@H](C(=O)N[C@H](C(N)=O)[C@@H](C)O)C(C)(C)C)NC(=O)[C@H](CC(N)=O)NC(=O)C(C)(C)NC(=O)[C@H](CCCNC(N)=O)NC(=O)[C@H](CCCCN)NC1=O)[C@@H](C)O [PSM-0179] (Ac-T[Aib][Phe(4-Cl)]CK[Cit][Aib]NC[Tle]T-NH2; disulfide 4-9)" system_name="PSMA-expressing C4-2 cells (Homo sapiens, UniProt Q04609)" observed_measurement="< 200 nM"

This collection of values is drawn from patent US20260083865A1.
